Assay: Pharmacokinetic study: plasma, blood and quadriceps Givinostat levels after single oral dose (LC-MS/MS)
Format: in vivo, mdx mice (C57BL/10ScSn-Dmd^mdx/J)
Conditions: male, C57BL/10ScSn-Dmd^mdx/J (mdx), mouse, whole blood and plasma; 10 mg/kg single oral dose, mdx mice; read-out: AUCtot Blood/Plasma ratio
READOUT_TYPE: blood plasma ratio

{"MOLECULE": "CCN(CC)Cc1ccc2cc(COC(=O)Nc3ccc(C(=O)NO)cc3)ccc2c1 [Givinostat]", "NUMBER": 1.8}

----------
Assay: Pharmacokinetic study: plasma, blood and quadriceps Givinostat levels after single oral dose (LC-MS/MS)
Assay type: in vivo, mdx mice (C57BL/10ScSn-Dmd^mdx/J)
Details: male, C57BL/10ScSn-Dmd^mdx/J (mdx), mouse; blood, 10 mg/kg single oral dose, mdx mice

{"COMPOUND": "CCN(CC)Cc1ccc2cc(COC(=O)Nc3ccc(C(=O)NO)cc3)ccc2c1 [Givinostat]", "AUC / ng·h/mL": 458}

----------
Assay: Pharmacokinetic study: plasma, blood and quadriceps Givinostat levels after single oral dose (LC-MS/MS)
Format: in vivo, mdx mice (C57BL/10ScSn-Dmd^mdx/J)
Conditions: male, C57BL/10ScSn-Dmd^mdx/J (mdx), mouse, plasma, po, 37.5 mg/kg, plasma, 37.5 mg/kg single oral dose, mdx mice; read-out: Cmax

{"COMPOUND_SMILES": "CCN(CC)Cc1ccc2cc(COC(=O)Nc3ccc(C(=O)NO)cc3)ccc2c1", "RESULT_UNIT": "ng/mL", "Cmax": 807}

----------
Test: Pharmacokinetic study: plasma, blood and quadriceps Givinostat levels after single oral dose (LC-MS/MS)
Format: in vivo, mdx mice (C57BL/10ScSn-Dmd^mdx/J)
Settings: male, C57BL/10ScSn-Dmd^mdx/J (mdx), mouse, blood, po, 5 mg/kg, blood, 5 mg/kg single oral dose, mdx mice; read-out: Cmax
Experimental: For the PK study, C57BL/10ScSn-Dmd^mdx/J (Stock No: 001801) 9-week-old male mice were purchased from The Jackson Laboratories (Bar Harbor, Maine, USA). […] Mice were maintained under isoflurane anesthesia. […] This blood was analyzed in order to subtract the blood content of Givinostat from the muscle homogenate. […] Givinostat was determined in mouse plasma (50 μL) following a protein precipitation (200 μL of 1% HCOOH in acetonitrile) and Ostro (Waters) plate filtration. […]
READOUT_TYPE: Cmax (µg/mL)

{"COMPOUND_SMILES": "CCN(CC)Cc1ccc2cc(COC(=O)Nc3ccc(C(=O)NO)cc3)ccc2c1", "NUMBER": 0.0351}

----------
Experiment: Pharmacokinetic study: plasma, blood and quadriceps Givinostat levels after single oral dose (LC-MS/MS)
Format: in vivo, mdx mice (C57BL/10ScSn-Dmd^mdx/J)
Conditions: male, C57BL/10ScSn-Dmd^mdx/J (mdx), mouse, quadriceps muscle and plasma, po, 37.5 mg/kg, mean over 5, 10, 25, 37.5 mg/kg oral doses, mdx mice; read-out: AUCtot Muscle/Plasma ratio, mean

{"COMPOUND_SMILES": "CCN(CC)Cc1ccc2cc(COC(=O)Nc3ccc(C(=O)NO)cc3)ccc2c1", "Kp": "~4.5"}
